Hey, just so you know, these numbers are from paper PMC3858832.

# Experimental Protocol: Far-UV circular dichroism pH titration, midpoint of conformational transition (pKα)
# Format: physicochemical
# Measurement Context: far-UV CD intensity at 220 nm vs pH; peptide 30-50 μM in 5 mM Tris amine titrated with HClO4; 37 °C (310 K); average of two or more independent experiments
Property Measured: pKα at 37 °C (midpoint of the main conformational transition)

substance="KKLAHALHLLALLWLHLAHALKKA-NH2 [reference compound]" observed_value=5.33
substance="KKLAXALXLLALLWLXLAXALKKA-NH2 [LADap(Me2), 24-residue cationic amphipathic peptide with four N,N-dimethyl-Dap residues]" observed_value=6.80
substance="KKLAXALXLLALLWLXLAXALKKA-NH2 [LADap, 24-residue cationic amphipathic peptide with four Dap residues]" observed_value=6.22
substance="KKALLAHALHLLALLALHLAHALKKA-NH2 [LAH4-L1, reference compound]" observed_value=5.29
